B1: CPEB3 Ribozyme (parent)
chain: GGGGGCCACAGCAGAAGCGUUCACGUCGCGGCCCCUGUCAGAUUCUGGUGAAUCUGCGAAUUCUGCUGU

variants of: B1; experiment: self-cleavage, relative activity (ratio to wild type); higher = more cleavage; co-transcriptional
Rule: 1 for self-cleavage not less than 0.2, -1 for anything less.

Tell me whether self-cleavage is at least 0.2 here: G2U U38C
-1

Tell me whether self-cleavage is at least 0.2 here: C9G G56C
1

Tell me whether self-cleavage is at least 0.2 here: G5C G17U
-1

Tell me whether self-cleavage is at least 0.2 here: U38A G56C
1

Next:
Tell me whether self-cleavage is at least 0.2 here: G1U C54U
-1

Tell me whether self-cleavage is at least 0.2 here: A59C G65U
1

Tell me whether self-cleavage is at least 0.2 here: G37A U55G
1

Tell me whether self-cleavage is at least 0.2 here: G14C U44C
-1

Tell me whether self-cleavage is at least 0.2 here: C7A G11C
1

Tell me whether self-cleavage is at least 0.2 here: C29U A42C
1

Tell me whether self-cleavage is at least 0.2 here: G25U G56C
-1

Tell me whether self-cleavage is at least 0.2 here: U43A C66G
1
